Please provide measured IC50 for the entries that follow.
Test system: Aβ-38
experimentalProtocol: Aβ-38 MSD 3-plex ELISA, conditioned media of 2B7 cells
Format: cell-based
experimentalSetup: Homo sapiens, 5 hours treatment, read-out: Aβ 38 IC50

Consider the reported IC50 for these compounds:
[
  {
    "compound": "CCO[C@@H]([C@H]1C[C@@H](C)[C@H]2[C@H](O1)[C@H](O)[C@@]1(C)[C@@H]3CC[C@H]4C(C)(C)[C@@H](O[C@H]5CN(CCNCCOC)CCO5)CC[C@@]45C[C@@]35CC[C@]21C)C(C)(C)O [Compound I-60]",
    "measured": "100 to 500 nM"
  },
  {
    "compound": "CCO[C@@H]([C@H]1C[C@@H](C)[C@H]2[C@H](O1)[C@H](O)[C@@]1(C)[C@@H]3CC[C@H]4C(C)(C)[C@@H](O[C@H]5CN(C6CCN(C7CCC7)CC6)CCO5)CC[C@@]45C[C@@]35CC[C@]21C)C(C)(C)O [Compound I-21]",
    "measured": "501 to 1000 nM"
  },
  {
    "compound": "CCO[C@@H]([C@H]1C[C@@H](C)[C@H]2[C@H](O1)[C@H](O)[C@@]1(C)[C@@H]3CC[C@H]4C(C)(C)[C@@H](O[C@H]5CN(C6(C)CN(CC7(C)COC7)C6)CCO5)CC[C@@]45C[C@@]35CC[C@]21C)C(C)(C)O [Compound I-34]",
    "measured": "501 to 1000 nM"
  },
  {
    "compound": "CCO[C@@H]([C@H]1C[C@@H](C)[C@H]2[C@H](O1)[C@H](O)[C@@]1(C)[C@@H]3CC[C@H]4C(C)(C)[C@@H](O[C@H]5CN(CCN6CC(F)C6)CCO5)CC[C@@]45C[C@@]35CC[C@]21C)C(C)(C)O [Compound I-63]",
    "measured": "501 to 1000 nM"
  },
  {
    "compound": "CCO[C@@H]([C@H]1C[C@@H](C)[C@H]2[C@H](O1)[C@H](O)[C@@]1(C)[C@@H]3CC[C@H]4C(C)(C)[C@@H](O[C@H]5CN(C6(C)CN(CCOC)C6)CCO5)CC[C@@]45C[C@@]35CC[C@]21C)C(C)(C)O [Compound I-37]",
    "measured": "100 to 500 nM"
  },
  {
    "compound": "CCO[C@@H]([C@H]1C[C@@H](C)[C@H]2[C@H](O1)[C@H](O)[C@@]1(C)[C@@H]3CC[C@H]4C(C)(C)[C@@H](O[C@H]5CN(C6CN(CC7(C)COC7)C6)CCO5)CC[C@@]45C[C@@]35CC[C@]21C)C(C)(C)O [Compound I-32]",
    "measured": "100 to 500 nM"
  },
  {
    "compound": "CCO[C@@H]([C@H]1C[C@@H](C)[C@H]2[C@H](O1)[C@H](O)[C@@]1(C)[C@@H]3CC[C@H]4C(C)(C)[C@@H](O[C@H]5CN(CC6CN(C(CO)CO)C6)CCO5)CC[C@@]45C[C@@]35CC[C@]21C)C(C)(C)O [Compound I-73]",
    "measured": "100 to 500 nM"
  }
]

Let us move to another entry and its IC50.
Reported IC50 for CCO[C@@H]([C@H]1C[C@@H](C)[C@H]2[C@H](O1)[C@H](O)[C@@]1(C)[C@@H]3CC[C@H]4C(C)(C)[C@@H](O[C@H]5CN(C6CN(CC(F)F)C6)CCO5)CC[C@@]45C[C@@]35CC[C@]21C)C(C)(C)O [Compound I-9] was 501 to 1000 nM

Values compiled from patent US20130060020A1.
